Target: T1, Canarypox virus CNP058 lacking the C-terminal transmembrane domain (residues 1–143) (canarypox virus, UniProt Q6VZT9 1-143)
T1 sequence: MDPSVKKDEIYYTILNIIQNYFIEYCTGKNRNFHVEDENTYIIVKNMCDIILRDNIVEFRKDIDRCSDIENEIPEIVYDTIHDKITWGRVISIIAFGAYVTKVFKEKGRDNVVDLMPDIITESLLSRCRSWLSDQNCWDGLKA
Assay: ITC
Conditions: both partners purified
QUANTITY: log10 of Kd (log10 of the value in nM)

BINDER: EARTEVQIARKLQCIADQFHRLHIQR [Gallus gallus Bmf BH3 domain peptide (residues 135-160)]
log10 of Kd: 2.47
--
BINDER: ERDAVAECALELRRIGDKADLQQKVL (Noxa, Gallus gallus, BH3 domain peptide; source: synthetic peptide (Mimotopes)) [Gallus gallus Noxa BH3 domain peptide]
log10 of Kd: 3.52
--
BINDER: VPQDASTKKLSECLKRIGDELDSNMELQ [Homo sapiens Bax BH3 domain peptide (residues 50-77)]
log10 of Kd: 2.51
--
BINDER: PEVNEAIVRTIAAQLAEIGDQLDKQIKAKVVNDL [Gallus gallus Bid BH3 domain peptide (residues 77-110)]
log10 of Kd: 1.70
--
BINDER: EEQWAREIGAQLRRMADDLNAQYERR [Homo sapiens Puma BH3 domain peptide (residues 130-155)]
log10 of Kd: 3.39
